Test: Selectivity index, ratio of CC50 for cytotoxicity against human HePAD38 cells to EC50 for antiviral activity against Hepatitis B virus infected in human HePAD38 cells
Type: toxicity, cell-based
Details: read-out: Ratio CC50/EC50
selectivity ratio for assorted molecules
I'd appreciate a reply containing only the number, no unit.

Answered cases to consult:
{"columns": ["compound-string", "selectivity ratio"],
 "data": [
  ["Cc1cc(NC(=O)c2cc(NC(=S)NCc3ccc(C(F)(F)F)cc3)c(F)cc2Br)ccc1F", 16.1],
  ["Cc1cc(NC(=O)c2cc(NC(=O)C3CCC3)c(F)cc2Br)ccc1F", 23]
]}

The value of selectivity ratio measured for the molecule Cc1cc(NC(=O)c2cc(NC(=O)Nc3cc(F)c(F)c(F)c3)c(F)cc2Br)ccc1F turned out to be 2.19

The value of selectivity ratio measured for the molecule COCCC(=O)Nc1cc(C(=O)Nc2ccc(F)c(C)c2)c(Br)cc1F turned out to be 27.4

---

Assay: Selectivity index, ratio of CC50 for cytotoxicity against human HePAD38 cells to EC50 for antiviral activity against Hepatitis B virus infected in human HePAD38 cells
Type: toxicity, cell-based
Conditions: read-out: Ratio CC50/EC50
observed-property: selectivity ratio

{"columns": ["compound-string", "selectivity ratio"],
 "data": [
  ["O=C(Nc1ccc(F)c(C(F)(F)F)c1)c1cc(S(=O)(=O)N[C@H]2CCOC2)c(F)cc1Br", "> 19.8"],
  ["N#Cc1cc(NC(=O)c2cc(S(=O)(=O)N[C@H]3CCOC3)c(F)cc2Br)ccc1F", "> 15.4"],
  ["Nc1ccn([C@@H]2CS[C@H](CO)O2)c(=O)n1", "> 25.1"],
  ["Cc1cc(NC(=O)c2cc(NC(=O)C3CCCC3)c(F)cc2Br)ccc1F", "> 93.5"],
  ["Cc1cc(NC(=O)c2cc(NC(=O)NCc3cccnc3)c(F)cc2Br)ccc1F", "> 200"]
]}

Let's switch to this compound now.
The value of selectivity ratio measured for the compound O=C(Nc1ccc(F)cc1)c1cc(S(=O)(=O)N[C@H]2CCOC2)c(F)cc1Br turned out to be > 41.8

Hey, just so you know, these numbers are from ChEMBL document CHEMBL5370621.
